experimental-target: human CD28 (human, UniProt P10747 19-220)
assay-summary: cell-based or functional assay
Reported Luciferase assay (EC50) by item:
The reply should contain only the number, in nM.

(Q) # input binder: 1h-35-7 (other) VL: DIQMTQSPSSLSASVGDRVTITCRASQYIGSALGWYQQKPGKAPKLLIYRASNLQSGVPSRFSGSGYGTGFTLTISSLQPEDFATYYCQQLAIRPFTFGQGTKVEIKR ; wanted: its Luciferase assay (EC50)
(A) 79

(Q) Return reported Luciferase assay (EC50); argument: 1h-99-229 (other) VH: EVQLLESGGGLVQPGGSLRLSCAASGFTFARTNMSWARQAPGKGLEWVSWIEDTGTQTFYADSVKGRFTISRDNSKNTLYLQMNSLRAEDTAVYYCAKSPFGPLYGFDYRGQGTLVTVSS
(A) 15
